# TEST_PROTOCOL: recombinant barcode read abundance after kanamycin selection (control-corrected) (log10(CPM+1)); higher = more efficient recombination; sequences stand for … in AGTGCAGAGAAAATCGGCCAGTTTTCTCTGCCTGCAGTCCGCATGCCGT…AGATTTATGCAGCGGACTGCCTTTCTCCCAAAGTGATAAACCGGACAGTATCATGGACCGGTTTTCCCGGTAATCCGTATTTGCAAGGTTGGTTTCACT; site = the 11-nt target;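 also: IS621 recombinase and bridge RNA in Escherichia coli cells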
MEASURED_PROPERTY: recombinant barcode read abundance (log10)
Reply with the value as a number alone.

Q: What value of recombinant barcode read abundance (log10) has been reported for the following sequence? AGATTTACTTGGGTTCTAACCTGTTGCCT (site AGATTTACTAG)
A: 0.143

Q: What value of recombinant barcode read abundance (log10) has been reported for the following sequence? GTCTGATCTTGGGTTCTAACCTGTTGCCT (site GTCTAATCTAG)
A: 0.0854

Q: What value of recombinant barcode read abundance (log10) has been reported for the following sequence? CAGGACCCTTGGGTTCTAACCTGTTGCCT (site CAGGACCCTAG)
A: 2.18

Q: What value of recombinant barcode read abundance (log10) has been reported for the following sequence? CATTGTACTTGGGTTCTAACCTGTTGCTA (site CATCGGACTTA)
A: 0.104

Q: What value of recombinant barcode read abundance (log10) has been reported for the following sequence? GCCTCGTCTTGGGTTCTAACCTGTTGCCT (site GCCTCGTCTAG)
A: 0.68

Q: What value of recombinant barcode read abundance (log10) has been reported for the following sequence? CAGTCTGCTTGGGTTCTAACCTGTTGCCT (site CAATCTGCTAG)
A: 0.141

Q: What value of recombinant barcode read abundance (log10) has been reported for the following sequence? AGACTCCCTTGGGTTCTAACCTGTTGCAC (site ACACGCCCTGT)
A: 0.0745

Q: What value of recombinant barcode read abundance (log10) has been reported for the following sequence? TCTGTAACTTGGGTTCTAACCTGTTGCCT (site TCTGTAACTAG)
A: 0.421

---
Q: What value of recombinant barcode read abundance (log10) has been reported for the following sequence? CTGGCGCCTTGGGTTCTAACCTGTTGCAT (site TCTCGAGCTTC)
A: 0.0909

Q: What value of recombinant barcode read abundance (log10) has been reported for the following sequence? TCGCTAGCTTGGGTTCTAACCTGTTGCCT (site TCGCTAGCTAG)
A: 0.0976
